// provenance: ChEMBL document CHEMBL4043178

tested on: Liver; experiment: Half life in mouse pooled liver microsomes at 1 uM in presence of NADPH by LC/MS/MS method; assay type: ADME, microsome; conditions: microsomes, 1 µM
Measured t1/2 accompanies every entry in the list below.

Worked examples follow.
Cc1nc2c(N)ncnc2n1[C@@H]1O[C@H](CN(C)C/C=C\CNC(=O)OCc2ccccc2)[C@@H](O)[C@H]1O : 0.217 h
CC(=O)NC/C=C\CN(C)C[C@H]1O[C@@H](n2cnc3c(N)ncnc32)[C@H](O)[C@@H]1O : > 1.5 h
CCCC(=O)NC/C=C\CN(C)C[C@H]1O[C@@H](n2cnc3c(N)ncnc32)[C@H](O)[C@@H]1O : > 1.5 h
CCOC(=O)NC/C=C\CN(C)C[C@H]1O[C@@H](n2c(C)nc3c(N)ncnc32)[C@H](O)[C@@H]1O : > 1.5 h
CN(C/C=C\CN)C[C@H]1O[C@@H](n2cnc3c(N)ncnc32)[C@@H]2OC(C)(C)O[C@@H]21 : > 1.5 h

Record "NC/C=C\CN(CCF)C[C@H]1O[C@@H](n2cnc3c(N)ncnc32)[C@H](O)[C@@H]1O" ; system Liver; t1/2 = > 1.5 h

Record "Cc1nc2c(N)ncnc2n1[C@@H]1O[C@H](CN(C/C=C\CN)C2CC2)[C@H]2OC(C)(C)O[C@H]21" ; system Liver; t1/2 = > 1.5 h

Record "Cc1nc2c(N)ncnc2n1[C@@H]1O[C@H](CN(C/C=C\CN)CCO)[C@H]2OC(C)(C)O[C@H]21" ; system Liver; t1/2 = > 1.5 h

Record "Cc1nc2c(N)ncnc2n1[C@@H]1O[C@H](CN(C)C/C=C\CNC(=O)OC(C)(C)C)[C@H]2OC(C)(C)O[C@H]21" ; system Liver; t1/2 = < 0.0417 h

Record "CNc1ncnc2c1ncn2[C@@H]1O[C@H](CN(C)C/C=C\CN)[C@@H](O)[C@H]1O" ; system Liver; t1/2 = > 1.5 h

Record "CC(=O)NC/C=C\CN(C)C[C@H]1O[C@@H](n2cnc3c(N)ncnc32)[C@H](OC(C)=O)[C@@H]1OC(C)=O" ; system Liver; t1/2 = 0.11 h

Record "CN(C/C=C\CN)C[C@H]1O[C@@H](n2cnc3c(N(C)C)ncnc32)[C@H](O)[C@@H]1O" ; system Liver; t1/2 = > 1.5 h

Record "Cc1nc2c(N)ncnc2n1[C@@H]1O[C@H](CN(C/C=C\CNC(=O)OC(C)(C)C)C2CC2)[C@H]2OC(C)(C)O[C@H]21" ; system Liver; t1/2 = < 0.0417 h

Record "CN(C/C=C\CN)C[C@H]1O[C@@H](n2cnc3c(N)ncnc32)[C@H](O)[C@@H]1O" ; system Liver; t1/2 = > 1.5 h

Record "Cc1nc2c(N)ncnc2n1[C@@H]1O[C@H](CN(C)C/C=C\CN)[C@@H](O)[C@H]1O" ; system Liver; t1/2 = > 1.5 h

Record "CCC(=O)NC/C=C\CN(C)C[C@H]1O[C@@H](n2cnc3c(N)ncnc32)[C@H](OC(C)=O)[C@@H]1OC(C)=O" ; system Liver; t1/2 = 0.0767 h

---

tested on: Liver; test: Half life in mouse pooled liver microsomes at 1 uM in presence of NADPH by LC/MS/MS method; type: ADME, microsome; details: microsomes, 1 µM
endpoint: t1/2

Worked examples follow.
CN(C/C=C\CN)C[C@H]1O[C@@H](n2cnc3cncnc32)[C@@H]2OC(C)(C)O[C@@H]21 : 0.983 h
Cc1nc2c(N)ncnc2n1[C@@H]1O[C@H](CN(C/C=C\CN)C2CC2)[C@@H](O)[C@H]1O : > 1.5 h
CC(C)Nc1ncnc2c1ncn2[C@@H]1O[C@H](CN(C)C/C=C\CN)[C@@H](O)[C@H]1O : > 1.5 h
CCCCCCCCC(=O)Nc1ncnc2c1ncn2[C@@H]1O[C@H](CN(C)C/C=C\CN)[C@H]2OC(C)(C)O[C@H]21 : 0.1 h

Record "Cc1nc2c(N)ncnc2n1[C@@H]1O[C@H](CN(C)C/C=C\CNC(=O)OC(C)C)[C@@H](O)[C@H]1O" ; system Liver; t1/2 = > 1.5 h

Record "CCOc1ncnc2c1ncn2[C@@H]1O[C@H](CN(C)C/C=C\CN)[C@@H](O)[C@H]1O" ; system Liver; t1/2 = > 1.5 h

Record "CCCC(=O)NC/C=C\CN(C)C[C@H]1O[C@@H](n2cnc3c(N)ncnc32)[C@H](OC(C)=O)[C@@H]1OC(C)=O" ; system Liver; t1/2 = 0.05 h

Record "CCC(=O)NC/C=C\CN(C)C[C@H]1O[C@@H](n2cnc3c(N)ncnc32)[C@H](O)[C@@H]1O" ; system Liver; t1/2 = > 1.5 h

Record "CNc1ncnc2c1ncn2[C@@H]1O[C@H](CN(C)C/C=C\CN)[C@H]2OC(C)(C)O[C@H]21" ; system Liver; t1/2 = > 1.5 h

Record "CC1(C)O[C@@H]2[C@H](O1)[C@@H](CN(C/C=C\CN)CCF)O[C@H]2n1cnc2c(N)ncnc21" ; system Liver; t1/2 = > 1.5 h

---

system: Trypanosoma brucei; experiment: Antitrypanosomal activity against Trypanosoma brucei Lister 427 bloodstream forms assessed as inhibition of parasite growth incubated for 48 hrs by ATP-bioluminescence cell viability assay; type: functional; details: Lister 427, 48 h
endpoint: pEC50
Give only the number. pEC50 is defined as minus log10 of concentration in molar units.

Worked examples follow.
Cc1nc2c(N)ncnc2n1[C@@H]1O[C@H](CN(C)C/C=C\CN)[C@@H](O)[C@H]1O : 8.74
CCCCCCCCC(=O)Nc1ncnc2c1ncn2[C@@H]1O[C@H](CN(C)C/C=C\CN)[C@H]2OC(C)(C)O[C@H]21 : 6.80
CN(C/C=C\CN)C[C@H]1O[C@@H](n2cnc3c(N(C)C)ncnc32)[C@H](O)[C@@H]1O : 5.00

Reported pEC50 of "CC(C)Nc1ncnc2c1ncn2[C@@H]1O[C@H](CN(C)C/C=C\CN)[C@@H](O)[C@H]1O" : 5.60

---

Measured pEC50 accompanies every entry in the list below.
tested on: Trypanosoma brucei; assay: Antitrypanosomal activity against Trypanosoma brucei Lister 427 bloodstream forms assessed as inhibition of parasite growth incubated for 48 hrs by ATP-bioluminescence cell viability assay; type: functional; details: Lister 427, 48 h
pEC50: −log10 of the molar value.

Worked examples follow.
CC(=O)NC/C=C\CN(C)C[C@H]1O[C@@H](n2cnc3c(N)ncnc32)[C@H](O)[C@@H]1O : < 4.60
CC(=O)NC/C=C\CN(C)C[C@H]1O[C@@H](n2cnc3c(N)ncnc32)[C@H](OC(C)=O)[C@@H]1OC(C)=O : < 4.60

Turning now to a further molecule:
Reported pEC50 of "Cc1nc2c(N)ncnc2n1[C@@H]1O[C@H](CN(C/C=C\CN)CCO)[C@H]2OC(C)(C)O[C@H]21" : < 4.60

---

Measured t1/2 accompanies every entry in the list below.
test system: Liver; test: Half life in human pooled liver microsomes at 1 uM in presence of NADPH by LC/MS/MS method; assay type: ADME, microsome; details: microsomes, 1 µM

Cc1nc2c(N)ncnc2n1[C@@H]1O[C@H](CN(C/C=C\CN)C2CC2)[C@H]2OC(C)(C)O[C@H]21 : > 1.5 h
CNc1ncnc2c1ncn2[C@@H]1O[C@H](CN(C)C/C=C\CN)[C@H]2OC(C)(C)O[C@H]21 : > 1.5 h
CC(=O)NC/C=C\CN(C)C[C@H]1O[C@@H](n2cnc3c(N)ncnc32)[C@H](OC(C)=O)[C@@H]1OC(C)=O : > 1.5 h
CC(C)Nc1ncnc2c1ncn2[C@@H]1O[C@H](CN(C)C/C=C\CN)[C@@H](O)[C@H]1O : > 1.5 h
CN(C/C=C\CN)C[C@H]1O[C@@H](n2cnc3c(N)ncnc32)[C@@H]2OC(C)(C)O[C@@H]21 : > 1.5 h
CCCC(=O)NC/C=C\CN(C)C[C@H]1O[C@@H](n2cnc3c(N)ncnc32)[C@H](O)[C@@H]1O : > 1.5 h

Reported t1/2 of "CCC(=O)NC/C=C\CN(C)C[C@H]1O[C@@H](n2cnc3c(N)ncnc32)[C@H](OC(C)=O)[C@@H]1OC(C)=O" : 1.25 h

Reported t1/2 of "Cc1nc2c(N)ncnc2n1[C@@H]1O[C@H](CN(C/C=C\CN)C2CC2)[C@@H](O)[C@H]1O" : > 1.5 h

Reported t1/2 of "CCCCCCCCC(=O)Nc1ncnc2c1ncn2[C@@H]1O[C@H](CN(C)C/C=C\CN)[C@H]2OC(C)(C)O[C@H]21" : 0.162 h

Reported t1/2 of "Cc1nc2c(N)ncnc2n1[C@@H]1O[C@H](CN(C/C=C\CNC(=O)OC(C)(C)C)C2CC2)[C@H]2OC(C)(C)O[C@H]21" : < 0.0417 h

Reported t1/2 of "Cc1nc2c(N)ncnc2n1[C@@H]1O[C@H](CN(C)C/C=C\CNC(=O)OCc2ccccc2)[C@@H](O)[C@H]1O" : 0.4 h

Reported t1/2 of "Cc1nc2c(N)ncnc2n1[C@@H]1O[C@H](CN(C)C/C=C\CNC(=O)OC(C)(C)C)[C@H]2OC(C)(C)O[C@H]21" : < 0.0417 h

Reported t1/2 of "CCOc1ncnc2c1ncn2[C@@H]1O[C@H](CN(C)C/C=C\CN)[C@@H](O)[C@H]1O" : > 1.5 h

Reported t1/2 of "CCCC(=O)NC/C=C\CN(C)C[C@H]1O[C@@H](n2cnc3c(N)ncnc32)[C@H](OC(C)=O)[C@@H]1OC(C)=O" : 0.85 h
